Recorded values, source ChEMBL document CHEMBL1949633.

molecular target: Histamine H3 receptor (Homo sapiens)
Sequence (Q9Y5N1 whole entry): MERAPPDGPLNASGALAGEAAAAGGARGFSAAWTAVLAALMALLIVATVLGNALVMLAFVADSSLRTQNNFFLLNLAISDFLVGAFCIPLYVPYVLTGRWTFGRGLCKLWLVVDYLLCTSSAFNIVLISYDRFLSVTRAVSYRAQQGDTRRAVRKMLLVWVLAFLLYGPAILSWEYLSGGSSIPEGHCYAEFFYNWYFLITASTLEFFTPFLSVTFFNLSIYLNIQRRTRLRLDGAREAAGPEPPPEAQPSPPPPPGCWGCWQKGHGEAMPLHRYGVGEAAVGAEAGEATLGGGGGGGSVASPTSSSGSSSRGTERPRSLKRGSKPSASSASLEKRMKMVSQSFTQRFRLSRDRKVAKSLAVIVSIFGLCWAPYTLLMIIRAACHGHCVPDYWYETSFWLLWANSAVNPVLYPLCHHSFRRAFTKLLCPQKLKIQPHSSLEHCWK
parameter: pKi
Note on units: pKi is unitless, being -log10 of a concentration expressed in mol/L.

Identify measured pKi associated with O=C(CN1CCOCC1)c1ccc(OCCCN2CCCC2)cc1
6.97

Identify measured pKi associated with CC(C(=O)c1ccc(OCCCN2CCC[C@H]2C)cc1)N1CCOCC1 (stereo partly specified)
8.10

Identify measured pKi associated with Cc1cc(OCCCN2CCC[C@H]2C)ccc1C(=O)CN1CCOCC1
7.72

Identify measured pKi associated with O=C(CN1CCCCC1)c1ccc(OCCCN2CCCC2)cc1
7.49

Identify measured pKi associated with C[C@@H]1CCCN1CCCOc1ccc(C(=O)C(C)(C)N2CCOCC2)cc1
8.05

---

assay: Half life in human liver microsomes; format: ADME, Microsome
Assignment: determine reported half-life for the given molecules.

Identify measured half-life associated with CC(C(=O)c1ccc(OCCCN2CCC[C@H]2C)cc1)N1CCOCC1 (some centres not stated)
> 40 min

Identify measured half-life associated with C[C@@H]1CCCN1CCCOc1ccc(C(=O)C(C)(C)N2CCOCC2)cc1
8 min

---

experiment: Half life in rat liver microsomes; format: ADME, Microsome
parameter: half-life (min)
The response must be a number in min with no trailing unit.

Identify measured half-life associated with C[C@@H]1CCCN1CCCOc1ccc(C(=O)C(C)(C)N2CCOCC2)cc1
9

---

target: Cytochrome P450 2D6 (Homo sapiens, UniProt P10635)
Sequence (P10635 whole entry): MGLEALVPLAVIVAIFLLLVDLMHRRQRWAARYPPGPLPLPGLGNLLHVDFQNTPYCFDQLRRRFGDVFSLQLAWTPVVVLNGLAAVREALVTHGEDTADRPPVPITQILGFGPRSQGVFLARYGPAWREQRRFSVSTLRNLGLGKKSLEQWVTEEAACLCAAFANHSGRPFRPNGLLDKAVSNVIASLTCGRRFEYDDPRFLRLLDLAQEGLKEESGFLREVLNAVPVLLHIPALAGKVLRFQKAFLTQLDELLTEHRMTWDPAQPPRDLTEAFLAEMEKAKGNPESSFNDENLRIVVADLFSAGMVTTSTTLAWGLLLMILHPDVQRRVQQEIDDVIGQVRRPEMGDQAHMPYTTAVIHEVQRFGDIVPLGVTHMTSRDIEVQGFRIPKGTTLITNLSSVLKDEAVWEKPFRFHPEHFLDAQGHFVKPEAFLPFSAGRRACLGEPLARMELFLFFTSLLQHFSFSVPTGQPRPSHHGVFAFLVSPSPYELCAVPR
parameter: IC50

Identify measured IC50 associated with C[C@@H]1CCCN1CCCOc1ccc(C(=O)CN2CCOCC2)cc1
> 30 µM

---

Assignment: determine reported half-life for the given compounds.
assay: Half life in mouse liver microsomes; format: ADME, Microsome

Identify measured half-life associated with CC(C(=O)c1ccc(OCCCN2CCC[C@H]2C)cc1)N1CCOCC1 (some centres not stated)
> 40 min

Identify measured half-life associated with C[C@@H]1CCCN1CCCOc1ccc(C(=O)C(C)(C)N2CCOCC2)cc1
> 40 min

---

assay: Drug uptake in rat brain at 10 mg/kg, ip measured after 6 hrs; assay type: ADME, organism-based; design: dose 10 mg/kg, route intraperitoneal; conditions: read-out: Drug uptake
parameter: concentration at 6 h (ng/g)
The response must be a number in ng/g with no trailing unit.

Identify measured concentration at 6 h associated with CC1CCCN1CCCOc1ccc(C(=O)CN2CCOCC2)cc1 (racemic)
955

---

test system: Rattus norvegicus; assay: AUC (0 to 6 hrs) in rat at 5 mg/kg, po; assay type: ADME, organism-based, Plasma; design: time < 6 hr, dose 5 mg/kg, route oral; conditions: in vivo
parameter: AUC (ng·h/mL)
The response must be a number in ng·h/mL with no trailing unit.

Identify measured AUC associated with C[C@@H]1CCCN1CCCOc1ccc(C(=O)CN2CCOCC2)cc1
109

---

experiment: Drug uptake in rat brain at 10 mg/kg, ip measured after 4 hrs; type: ADME, organism-based; parameters: dose 10 mg/kg, route intraperitoneal; settings: read-out: Drug uptake
parameter: concentration at 4 h (ng/g)
The response must be a number in ng/g with no trailing unit.

Identify measured concentration at 4 h associated with CC1CCCN1CCCOc1ccc(C(=O)CN2CCOCC2)cc1 (racemic)
1610
